target: Carbonic anhydrase 3 (Bos taurus, UniProt Q3SZX4); test: CA Activity Assay; settings: pH 7.4
The following compounds are listed with their measured Ki values.

| COMPOUND | TESTED TARGET | Ki [µM] |
| --- | --- | --- |
| O[C@@H]1CCCC[C@@H]1O [Carbonic anhydrase inhibitors (CAIs), 7] | Carbonic anhydrase 3 (Bos taurus, UniProt Q3SZX4) | 1.19 |
| Cc1ccc(S(=O)(=O)N[C@@H]2[C@@H](O)[C@H](O)CC[C@@H]2O)cc1 [Carbonic anhydrase inhibitors (CAIs), 6] | Carbonic anhydrase 3 (Bos taurus, UniProt Q3SZX4) | 1.75 |
| Cc1ccc(S(=O)(=O)Nc2ccccc2)cc1 | Carbonic anhydrase 3 (Bos taurus, UniProt Q3SZX4) | 13.1 |
| O[C@@H]1CCCC[C@H]1O [(1R,2R)-trans-1,2-cyclohexanediol] | Carbonic anhydrase 3 (Bos taurus, UniProt Q3SZX4) | 4.28 |

---

The following compounds are listed with their measured pKi values.
molecular target: Carbonic anhydrase 1 (Homo sapiens, UniProt P00915)
Sequence (P00915 whole entry): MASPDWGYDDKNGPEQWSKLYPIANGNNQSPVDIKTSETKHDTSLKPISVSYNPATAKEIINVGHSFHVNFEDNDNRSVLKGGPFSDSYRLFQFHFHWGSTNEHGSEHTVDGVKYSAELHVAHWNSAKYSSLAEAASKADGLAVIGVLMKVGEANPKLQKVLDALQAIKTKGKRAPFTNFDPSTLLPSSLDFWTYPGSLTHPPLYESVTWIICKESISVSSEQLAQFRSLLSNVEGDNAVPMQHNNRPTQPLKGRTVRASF
pKi: −log10 of the molar value.
REPORTED ENDPOINT: pKi

| COMPOUND | ENDPOINT VALUE |
| --- | --- |
| Cc1ccc(S(=O)(=O)Nc2ccccc2)cc1 [CA inhibitor, 2] | 3.68 |
| O[C@@H]1CCCC[C@@H]1O [Carbonic anhydrase inhibitors (CAIs), 7] | 4.66 |
| Cc1ccc(S(=O)(=O)N[C@@H]2[C@@H](O)[C@H](O)CC[C@@H]2O)cc1 [Carbonic anhydrase inhibitors (CAIs), 6] | 5.03 |
| Nc1ccc(S(=O)(=O)Nc2ccccn2)cc1 [MLS000069725] | 4.58 |
| Cc1ccc(NS(=O)(=O)c2ccc(C)cc2)cc1 [Carbonic anhydrase inhibitors (CAIs), 1] | 4.30 |
| Cc1ccc(S(=O)(=O)N[C@@H]2C=CCC[C@@H]2O)cc1 [Carbonic anhydrase inhibitors (CAIs), 3] | 4.15 |
| Cc1ccc(S(=O)(=O)N[C@@H]2[C@@H](O)[C@@H](O)CC[C@@H]2O)cc1 [Carbonic anhydrase inhibitors (CAIs), 5] | 5.26 |
| Cc1ccc(S(=O)(=O)N2[C@@H]3C=CCC[C@@H]3OC2(C)C)cc1 [Carbonic anhydrase inhibitors (CAIs), 4] | 3.42 |

---

The following molecules are listed with their measured pKi values.
Target: Carbonic anhydrase 3 (Bos taurus, UniProt Q3SZX4)
Sequence (Q3SZX4 whole entry): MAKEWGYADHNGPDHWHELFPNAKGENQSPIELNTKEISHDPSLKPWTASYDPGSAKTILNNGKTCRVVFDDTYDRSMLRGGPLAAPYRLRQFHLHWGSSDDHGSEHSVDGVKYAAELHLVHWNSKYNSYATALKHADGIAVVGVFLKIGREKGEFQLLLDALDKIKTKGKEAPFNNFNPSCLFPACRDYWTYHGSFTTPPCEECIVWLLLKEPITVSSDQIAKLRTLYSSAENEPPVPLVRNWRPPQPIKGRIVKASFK
pKi: −log10 of the molar value.
REPORTED ENDPOINT: pKi

| MOLECULE | REPORTED ENDPOINT | ENDPOINT VALUE |
| --- | --- | --- |
| Cc1ccc(S(=O)(=O)N2[C@@H]3C=CCC[C@@H]3OC2(C)C)cc1 [Carbonic anhydrase inhibitors (CAIs), 4] | pKi | 4.24 |
| Cc1ccc(S(=O)(=O)N[C@@H]2[C@@H](O)[C@@H](O)CC[C@@H]2O)cc1 [Carbonic anhydrase inhibitors (CAIs), 5] | pKi | 6.23 |
| Cc1ccc(S(=O)(=O)N[C@@H]2C=CCC[C@@H]2O)cc1 [Carbonic anhydrase inhibitors (CAIs), 3] | pKi | 5.57 |
| Cc1ccc(NS(=O)(=O)c2ccc(C)cc2)cc1 [Carbonic anhydrase inhibitors (CAIs), 1] | pKi | 5.61 |

---

target: Carbonic anhydrase 2 (Homo sapiens, UniProt P00918)
pKi: −log10 of the molar value.
The following compounds are listed with their measured pKi values.
REPORTED ENDPOINT: pKi

| COMPOUND | REPORTED ENDPOINT | ENDPOINT VALUE |
| --- | --- | --- |
| Cc1ccc(NS(=O)(=O)c2ccc(C)cc2)cc1 [Carbonic anhydrase inhibitors (CAIs), 1] | pKi | 5.99 |
| Cc1ccc(S(=O)(=O)N[C@@H]2[C@@H](O)[C@H](O)CC[C@@H]2O)cc1 [Carbonic anhydrase inhibitors (CAIs), 6] | pKi | 6.09 |
| Cc1ccc(S(=O)(=O)N[C@@H]2C=CCC[C@@H]2O)cc1 [Carbonic anhydrase inhibitors (CAIs), 3] | pKi | 5.43 |
| Cc1ccc(S(=O)(=O)N2[C@@H]3C=CCC[C@@H]3OC2(C)C)cc1 [Carbonic anhydrase inhibitors (CAIs), 4] | pKi | 4.66 |
| Cc1ccc(S(=O)(=O)N[C@@H]2[C@@H](O)[C@@H](O)CC[C@@H]2O)cc1 [Carbonic anhydrase inhibitors (CAIs), 5] | pKi | 6.33 |
| O[C@@H]1CCCC[C@@H]1O [Carbonic anhydrase inhibitors (CAIs), 7] | pKi | 5.74 |
| Cc1ccc(S(=O)(=O)Nc2ccccc2)cc1 | pKi | 4.84 |

---

For Carbonic anhydrase 6 (Homo sapiens), measured Ki is reported for the entries below.
REPORTED ENDPOINT: Ki (µM)

| COMPOUND | UNIT | ENDPOINT VALUE |
| --- | --- | --- |
| Cc1ccc(S(=O)(=O)N[C@@H]2C=CCC[C@@H]2O)cc1 [Carbonic anhydrase inhibitors (CAIs), 3] | µM | 4.48 |
| Cc1ccc(S(=O)(=O)N[C@@H]2[C@@H](O)[C@@H](O)CC[C@@H]2O)cc1 [Carbonic anhydrase inhibitors (CAIs), 5] | µM | 1.12 |
| Cc1ccc(S(=O)(=O)N2[C@@H]3C=CCC[C@@H]3OC2(C)C)cc1 [Carbonic anhydrase inhibitors (CAIs), 4] | µM | 275 |
| Cc1ccc(S(=O)(=O)Nc2ccccc2)cc1 [CA inhibitor, 2] | µM | 13.5 |
| Cc1ccc(NS(=O)(=O)c2ccc(C)cc2)cc1 [Carbonic anhydrase inhibitors (CAIs), 1] | µM | 24.3 |
| O[C@@H]1CCCC[C@@H]1O [Carbonic anhydrase inhibitors (CAIs), 7] | µM | 16.7 |
| Cc1ccc(S(=O)(=O)N[C@@H]2[C@@H](O)[C@H](O)CC[C@@H]2O)cc1 [Carbonic anhydrase inhibitors (CAIs), 6] | µM | 3.78 |
